Target desc: T1, SARS-CoV-2 RBD-mFc (SARS-CoV-2, UniProt P0DTC2 319-541)
T1 construct: range 319-541
Assay info: Octet QKe BLI, 1:1 global fit
Measure: Kd (nM)

1. SA4055 (antibody, V domains shown) VH: EVQLVQSGGGLVQPGGSLRLSCAASVITVSSNYMSWVRQAPGKGLEWVSVIYPGGSTYYADSVKGRFTISRDKSKNTLYLQMNSLRAEDTAVYYCARDLDIVGGMDVWGQGTTVTVSS VL: QSALTQPASVSGSPGQSITISCTGTSSDVGDYNLVSWYQQHPGKAPKVMIYDVSHRPSGVSNRFSGSKSGNTASLTISGLQAEDEADYYCSSYTSSTTVVFGGGTKLTVL = 0.061
